# Target: T1, human MSLN-R3 protein (human, UniProt Q13421 487-598)
# T1 construct: also called hMSLN-R3
# T1 sequence (Q13421 495-606, form in doubt): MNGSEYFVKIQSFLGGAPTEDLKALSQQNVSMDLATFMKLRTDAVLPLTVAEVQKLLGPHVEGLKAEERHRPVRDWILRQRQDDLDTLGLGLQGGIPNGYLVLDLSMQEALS
# Protocol description: ELISA on coated antigen, antibody 100 nM
Property: OD450; scope: individual binders
API: value field is a number in OD450; no unit string.

F7.33.24-H1 (scFv, not shown: small tags and cut ends, also called S009-F7.33.24 humanized antibody VH1 + VL1) scFv: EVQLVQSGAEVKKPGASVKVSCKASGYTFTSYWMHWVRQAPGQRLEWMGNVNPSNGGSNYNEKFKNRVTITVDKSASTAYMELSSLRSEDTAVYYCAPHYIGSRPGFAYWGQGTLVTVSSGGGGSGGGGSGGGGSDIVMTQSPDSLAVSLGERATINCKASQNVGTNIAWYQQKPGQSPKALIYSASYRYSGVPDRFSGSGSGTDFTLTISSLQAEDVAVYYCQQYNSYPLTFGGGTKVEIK    1.93

(Q) Consider the binder shown here: F7.33.24-H12 (scFv, not shown: small tags and cut ends, also called S009-F7.33.24 humanized antibody VH2a + VL3) scFv: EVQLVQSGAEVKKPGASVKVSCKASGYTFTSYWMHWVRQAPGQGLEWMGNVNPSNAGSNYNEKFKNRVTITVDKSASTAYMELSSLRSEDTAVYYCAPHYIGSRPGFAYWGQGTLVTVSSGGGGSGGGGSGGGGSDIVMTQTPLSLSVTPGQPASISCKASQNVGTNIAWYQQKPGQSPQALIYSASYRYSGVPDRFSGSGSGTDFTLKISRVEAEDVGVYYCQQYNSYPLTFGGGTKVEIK What is its recorded OD450?
(A) 2.04

(Q) Input F7.33.24-H11 (scFv, not shown: small tags and cut ends, also called S009-F7.33.24 humanized antibody VH2a + VL2) scFv: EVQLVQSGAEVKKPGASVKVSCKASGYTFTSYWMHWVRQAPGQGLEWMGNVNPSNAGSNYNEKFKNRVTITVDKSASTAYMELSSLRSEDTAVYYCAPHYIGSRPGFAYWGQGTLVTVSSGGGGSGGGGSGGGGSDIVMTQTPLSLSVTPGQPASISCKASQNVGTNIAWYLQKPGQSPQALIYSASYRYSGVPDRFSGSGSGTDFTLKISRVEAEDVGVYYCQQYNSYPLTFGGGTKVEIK
(A) 2.1

(Q) Same question for F7.33.24-H10 (scFv, not shown: small tags and cut ends, also called S009-F7.33.24 humanized antibody VH2a + VL1) scFv: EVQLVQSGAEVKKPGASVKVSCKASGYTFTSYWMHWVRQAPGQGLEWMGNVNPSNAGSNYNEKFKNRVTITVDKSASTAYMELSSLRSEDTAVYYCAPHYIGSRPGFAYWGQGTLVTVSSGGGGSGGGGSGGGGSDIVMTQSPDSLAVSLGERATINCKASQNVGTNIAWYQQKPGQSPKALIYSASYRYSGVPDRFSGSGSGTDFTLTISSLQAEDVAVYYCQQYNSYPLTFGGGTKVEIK please.
(A) 2.26

(Q) Queued: F7.33.24 (scFv, not shown: small tags and cut ends, also called S009-F7.33.24 (parental variable regions, in the humanized-antibody ELISA)) scFv: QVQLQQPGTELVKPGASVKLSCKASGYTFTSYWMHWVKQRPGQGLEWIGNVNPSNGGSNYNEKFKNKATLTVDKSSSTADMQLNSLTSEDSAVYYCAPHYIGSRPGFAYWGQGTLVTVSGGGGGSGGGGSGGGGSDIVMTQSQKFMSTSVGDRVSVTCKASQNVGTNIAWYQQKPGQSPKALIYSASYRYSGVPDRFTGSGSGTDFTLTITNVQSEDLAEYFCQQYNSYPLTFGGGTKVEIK
(A) 1.92
